Bridge positions count the residues as written; N and C are the ends. Peptide text beside a SMILES is read from it.
Botrytis cinerea: recorded MIC (μM) (SFM + 2 mM CaCl2) for assorted compounds

Please review the following examples before continuing.
| COMPOUND | READOUT TYPE | RESULT |
| --- | --- | --- |
| C[C@H](NC(=O)CN)C(=O)N[C@H]1CSSC[C@@H](C(N)=O)NC(=O)[C@H](CCCCN)NC(=O)[C@H](CCCCN)NC(=O)[C@H](Cc2ccc(O)cc2)NC(=O)[C@H](Cc2ccccc2)NC(=O)[C@H](Cc2ccccc2)NC(=O)[C@H](Cc2ccccc2)NC(=O)[C@H](C)NC(=O)[C@H](Cc2ccccc2)NC(=O)CNC(=O)[C@H](Cc2ccccc2)NC(=O)CNC(=O)[C@H](CCC(N)=O)NC(=O)[C@H](CCCNC(=N)N)NC(=O)[C@H](Cc2c[nH]cn2)NC1=O [GMA5CA_V4] (H-GACHRQGFGFAFFFYKKC-NH2; disulfide 3-18; N-terminus assumed) | MIC (μM) (SFM + 2 mM CaCl2) | >12 µM |
| CC[C@H](C)[C@@H]1NC(=O)[C@H](CCCNC(=N)N)NC(=O)[C@H]([C@@H](C)O)NC(=O)[C@H](Cc2ccccc2)NC(=O)[C@H](Cc2c[nH]c3ccccc23)NC(=O)[C@H](Cc2ccccc2)NC(=O)[C@H](CCCNC(=N)N)NC(=O)[C@H](CCCNC(=N)N)NC(=O)[C@H](CC(C)C)NC(=O)[C@H](Cc2ccccc2)NC(=O)CNC(=O)[C@H](CCCCN)NC(=O)[C@@H](NC(=O)[C@H](CCCNC(=N)N)NC(=O)CNC(=O)CN)CSSC[C@@H](C(N)=O)NC1=O [GMA4C_V9] (H-GGRCKGFLRRFWFTRIC-NH2; disulfide 4-17; N-terminus assumed) | MIC (μM) (SFM + 2 mM CaCl2) | 12 µM |

Kindly review the next compound as well.
Q: # query: MIC (μM) (SFM + 2 mM CaCl2) of entry CC[C@H](C)[C@@H]1NC(=O)[C@H](CCCNC(=N)N)NC(=O)[C@@H](NC(=O)[C@H](CCCNC(=N)N)NC(=O)CNC(=O)[C@@H](N)CO)CSSC[C@@H](C(N)=O)NC(=O)[C@H](CC(N)=O)NC(=O)[C@H](CCCCN)NC(=O)[C@H]([C@@H](C)O)NC(=O)[C@H](Cc2ccccc2)NC(=O)[C@H](Cc2ccc(O)cc2)NC(=O)[C@H](Cc2c[nH]c3ccccc23)NC(=O)[C@H](CCCNC(=N)N)NC(=O)[C@H](Cc2ccccc2)NC(=O)[C@H](CC(C)C)NC1=O [GMA1C_V3] (H-SGRCRILFRWYFTKNC-NH2; disulfide 4-16; N-terminus assumed)
A: 6 µM
